- testSummary: in vivo
- reportedConditions: rat, iv
Where a name gives a salt, the structure may show the parent alone.
reportedEndpoint: half-life (h)
Your answer is read as h, so omit the unit and give the number.

## Input Give reported half-life value for COc1cccc2c1C(=O)c1c(O)c3c(c(O)c1C2=O)C[C@@](O)(C(=O)CO)C[C@@H]3O[C@H]1C[C@H](N)[C@H](O)[C@H](C)O1 [Doxo, Doxorubicin hydrochloride]
## Output 2.74

----------
- testSummary: in vivo
- reportedConditions: rat, spleen, po
Counter-ions that a name gives are not always drawn.
reportedEndpoint: Cmax
Quick note: unit goes after the number.

## Input Give reported Cmax value for COc1cccc2c1C(=O)c1c(O)c3c(c(O)c1C2=O)C[C@@](O)(C(=O)CO)C[C@@H]3O[C@H]1C[C@H](N)[C@H](O)[C@H](C)O1 [Doxo, Doxorubicin hydrochloride]
## Output 11100 ng/g

----------
- testSummary: in vivo
- reportedConditions: rat, in vivo, po
Where a name gives a salt, the structure may show the parent alone.
reportedEndpoint: MRT last (h)
Your answer is read as h, so omit the unit and give the number.

## Input Give reported MRT last value for COc1cccc2c1C(=O)c1c(O)c3c(c(O)c1C2=O)C[C@@](O)(C(=O)CO)C[C@@H]3O[C@H]1C[C@H](N)[C@H](O)[C@H](C)O1 [Doxo, Doxorubicin hydrochloride]
## Output 8.21

----------
- testSummary: in vivo
- reportedConditions: rat, iv
Where a name gives a salt, the structure may show the parent alone.
reportedEndpoint: Tmax (h)
Your answer is read as h, so omit the unit and give the number.

## Input Give reported Tmax value for COc1cccc2c1C(=O)c1c(O)c3c(c(O)c1C2=O)C[C@@](O)(C(=O)CO)C[C@@H]3O[C@H]1C[C@H](N)[C@H](O)[C@H](C)O1 [Doxo, Doxorubicin hydrochloride]
## Output 8

----------
- testSummary: in vivo
- reportedConditions: rat, kidney, po
Where a name gives a salt, the structure may show the parent alone.
reportedEndpoint: Cmax (ng/g)
Your answer is read as ng/g, so omit the unit and give the number.

## Input Give reported Cmax value for COc1cccc2c1C(=O)c1c(O)c3c(c(O)c1C2=O)C[C@@](O)(C(=O)CO)C[C@@H]3O[C@H]1C[C@H](N)[C@H](O)[C@H](C)O1 [Doxo, Doxorubicin hydrochloride]
## Output 32900

----------
- testSummary: in vivo
- reportedConditions: rat, in vivo, po
Where a name gives a salt, the structure may show the parent alone.
reportedEndpoint: Tmax (h)
Your answer is read as h, so omit the unit and give the number.

## Input Give reported Tmax value for COc1cccc2c1C(=O)c1c(O)c3c(c(O)c1C2=O)C[C@@](O)(C(=O)CO)C[C@@H]3O[C@H]1C[C@H](N)[C@H](O)[C@H](C)O1 [Doxo, Doxorubicin hydrochloride]
## Output 8

----------
- testSummary: in vivo
- reportedConditions: rat, im
Where a name gives a salt, the structure may show the parent alone.
reportedEndpoint: Tmax (h)
Your answer is read as h, so omit the unit and give the number.

## Input Give reported Tmax value for COc1cccc2c1C(=O)c1c(O)c3c(c(O)c1C2=O)C[C@@](O)(C(=O)CO)C[C@@H]3O[C@H]1C[C@H](N)[C@H](O)[C@H](C)O1 [Doxo, Doxorubicin hydrochloride]
## Output 8
